Reference source for all entries: ChEMBL document CHEMBL1201862

System: EKVX
assay overview: NCI tumour cell line growth inhibition, 48 h
Active and inactive are the calls of the source. Cut-off read from the data, not from the text of the source: active = GI50 up to about 1.1 µM and inactive = higher.
readout name: GI50

Some solved entries appear below for comparison.
// map CC1(C)OB(O)OC1(C)C to recorded GI50 (system: EKVX) > 100 µM (inactive)

GI50 of COC(=O)c1ccc(NCc2c(O)ccc(O)c2Br)cc1Cl on EKVX? 14.6 µM (inactive)

Item CCOC(=O)C1CCCCN1C(=O)OCc1ccccc1 (stereo not given) with EKVX - GI50? > 100 µM (inactive)

Return GI50 measured with EKVX given this molecule: Cn1cc(-c2cnc(-c3cn(C)c4ccccc34)cn2)c2ccccc21 10.1 µM (inactive)

Form entry - test system: EKVX; read-out: GI50; molecule: COc1cc(/C=N/N=C2NCCCN2)ccc1O > 100 µM (inactive)

Your task in this section: give GI50 for each listed record.
1. CC(=O)C1C(=O)C(=O)N(c2ccc(Br)cc2)C1=O (stereo not given)
2. COc1cc(-c2c(C#N)c(N)c(C#N)c3c2COc2ccccc2-3)cc(OC)c1OC
3. Cc1c2oc3c(C)cc(F)c(C(=O)NC4C(=O)NC(C(C)C)C(=O)N5CCCC5C(=O)N(C)CC(=O)N(C)C(C(C)C)C(=O)OC4C)c3nc-2c(C(=O)NC2C(=O)NC(C(C)C)C(=O)N3CCCC3C(=O)N(C)CC(=O)N(C)C(C(C)C)C(=O)OC2C)c(N)c1=O (stereo not given)
4. Cn1c(=O)ccc2c(=O)c3ccccc3oc21
5. [C-]#[N+]C(=C\c1ccc(O)cc1)/C(=C/c1ccc(O)cc1)[N+]#[C-] [XANTOCILLIN]

1. > 100 µM (inactive)
2. 25.6 µM (inactive)
3. 1.75 µM (inactive)
4. > 100 µM (inactive)
5. 2.06 µM (inactive)

* * *

Tested on: NCI/ADR-RES
assay overview: NCI tumour cell line growth inhibition, 48 h
Active and inactive are the calls of the source. No stated cut-off is given here; in the data, active = GI50 up to about 1.1 µM and inactive = higher.
Choose one outcome from this list and give only that: 1 (active), -1 (inactive)

Solved cases (5 shown):
Answer briefly: the call reported for Cc1cc2nc3c(C)c4ccccc4c(C)n3c2cc1C in this assay. -1

Kindly provide the recorded test outcome for the following compound: Cc1sc(N/N=C2\C(=O)Nc3ccccc32)nc1-c1ccccc1 -1

Recorded call for O=[N+]([O-])c1cc(Cl)ccc1S(=O)(=O)c1ccccc1 ? -1

Any idea what this test logged for COc1c(C(=O)O)cccc1-c1cccc(C(=O)NCCN(CCNC(=O)c2cccc(-c3cccc(C(=O)O)c3OC)c2OC)CCNC(=O)c2cccc(-c3cccc(C(=O)O)c3OC)c2OC)c1OC ? -1

I'd appreciate the recorded outcome for O=C(CCCN1CCc2[nH]c3cc(F)ccc3c2C1)c1ccc(F)cc1 from this test. -1

More entries:
How was CC(=O)Nc1ccc2c(c1)/C(=N/c1ccc(C(=O)O)cc1)c1ccccc1-2 classified in this test? -1

Test call for this compound, please: CN(C)CCOC(=O)c1ccc(N)cc1 -1

* * *

Test system: COLO 205
assay overview: NCI tumour cell line growth inhibition, 48 h
Calls of active or inactive are those of the source. Rule as the data show it: active = GI50 up to about 1.1 µM and inactive = higher.
Assign GI50 to each entry below.

# example entries with known answers
// fetch COLO 205 GI50 for O=c1[nH]c2nc3ccccc3c(=O)n2/c1=C/c1ccco1 > 100 µM (inactive)

Test system COLO 205; read-out GI50; what value for COc1ccc(Oc2nc3c(N)cc(C(F)(F)F)cc3nc2-c2ccccc2)cc1 ? 12.8 µM (inactive)

Item Cc1cc2nc3c(C)c4ccccc4c(C)n3c2cc1C with COLO 205 - GI50? 2.15 µM (inactive)

Return GI50 measured with COLO 205 given this compound: CCOC(=O)c1ccc(C(=O)/C(C#N)=C2\CCCN2C)[nH]1 > 100 µM (inactive)

Observed GI50 on COLO 205 for COc1cc2c(cc1OC)C(C#N)(Cc1ccccc1)N(C(=O)c1ccccc1)C=C2 (centres undefined) , please. 35.2 µM (inactive)

Give measured GI50 for every item shown.
1. Cc1ncc([N+](=O)[O-])n1CCNC(=O)CCn1ccnc1[N+](=O)[O-]
2. C=C(Nc1nc2ccc(C)cc2s1)C(=O)C(CC)C(=O)C(CC)CC1C(=O)NC(=O)NC1=O (centres undefined)

1. > 100 µM (inactive)
2. > 100 µM (inactive)

Provide reported GI50 for each item, in the same order as listed.
1. COc1ccc(N2C(=O)CSC2c2cc3cc(Br)ccc3nc2Cl)cc1 (centres undefined)
2. C[C@]12CC[C@@H]3c4ccccc4CC[C@H]3[C@@H]1CC[C@@H]2O

1. > 50 µM (inactive)
2. 73.8 µM (inactive)
